All values here come from the supplement of paper PMC6757056.

B1: library; a variant is named by its letters at N, in order (parent)
chain: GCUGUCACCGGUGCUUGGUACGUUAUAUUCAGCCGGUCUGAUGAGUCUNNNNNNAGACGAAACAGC

Variants of: B1
Experiment: normalized RNA/DNA level without ligand (relative to sTRSVctl = 100) (log10 (% of sTRSVctl)); HEK293T overexpressing SLC46A1; higher = less ribozyme self-cleavage, higher mRNA level
Conditions: without (6R,S)-folinic acid; ligand present: no
# label = fulfilled if normalized RNA/DNA level without ligand (log10) >= 2 else not fulfilled

variant_descriptor=GGUGAG class_assignment="not fulfilled"
variant_descriptor=UUUAUC class_assignment=fulfilled
variant_descriptor=CGCGAU class_assignment="not fulfilled"
variant_descriptor=GGCGUG class_assignment=fulfilled
variant_descriptor=AAUGUG class_assignment="not fulfilled"
variant_descriptor=AAGUAG class_assignment="not fulfilled"
variant_descriptor=UUAUUG class_assignment="not fulfilled"
variant_descriptor=AGAUGG class_assignment="not fulfilled"
variant_descriptor=CCGUCC class_assignment=fulfilled
variant_descriptor=GCUCUC class_assignment=fulfilled
variant_descriptor=UAGCUC class_assignment=fulfilled
variant_descriptor=CGCAUC class_assignment=fulfilled
variant_descriptor=GAGGCU class_assignment=fulfilled
